# apparent KD of MS2 coat protein annotations
- Test system: MS2 coat protein
- experimental_protocol: apparent KD of MS2 coat protein; designed switch direction (-1 OFF switch, 1 ON switch): 1; higher = weaker reporter binding
- reported_conditions: input ligand: none
The reply should be a number in nM, with the unit left off.

// below: answered sequences
GCGAGCGUACUUGCUACAUGAGGAUCACCCAUGUUCGUUGGACAGGAUAUGGUACCGUUUCGGUACCAGAAGGGUUCAUCAUGU [JL SSNG3 3.75] (Eterna round: R96, puzzle: Same State NG 3)
278
GUAGCAUACCGAGGAUAUUCAUAUUAACAUGAGGAUCACCCAUGUUUUUAGGCCAAAAGGCCUUGGGAGAAGGCGGAAUGCUAC [Xeonanis - 20 Mod6] (Eterna round: R96, puzzle: Same State NG 2)
16.1

Here is another sequence to look at.
Reported apparent KD of MS2 coat protein for UGACACACGGCAGGAUAUCGAUUCCAAAGGAAUCGAGAAGGGCCUCAUGUCGUGGAAACGUGACAUGAGGAUCACCCAUGUCGC [Omei SS(NG)1 Cv16] (Eterna round: R96, puzzle: Same State NG 1) was 64.2

###

# apparent KD of MS2 coat protein annotations
- Test system: MS2 coat protein
- experimental_protocol: apparent KD of MS2 coat protein; higher = weaker reporter binding
- reported_conditions: Eterna round: R107; input ligand: tryptophan 2.4 mM
The reply should be a number in nM, with the unit left off.

// below: answered sequences
AAUAACAUGAGGAUCACCCAUGUAAAAGAUACCAGAGUGAUGAUCCUCCCUUGGCAGCUUAAACGCUAUUGAUUACAAUAGCGAA [Mat - Same State Theophlline A - Mod of Eli - D2]
28.6
GCUACAUGAGGAUCACCCAUGUGUACUGAAGGAGCGGCGGAAACGCCAGGUAGGUCGCAGUAUGUGGCUCUGGGCACGAGAAAGC [SSAA NP+V+V2 #2]
34.3

Here is another sequence to look at.
Reported apparent KD of MS2 coat protein for GGUAGCAGGACUGAUACCAGUCCAGCGAAUCAUACGACGCAACAUGAGGAUCACCCAUGUGACCCUUGGCAGCAGUCUGCUACCG [Same State Theophylline B GF 29] was 25.7

###

- System: MS2 coat protein
- experimental_protocol: apparent KD of MS2 coat protein; designed switch direction (-1 OFF switch, 1 ON switch): -1; higher = weaker reporter binding
- reported_conditions: Eterna round: R95; input ligand: FMN 200 uM
assay_readout: apparent KD of MS2 coat protein (µM)
The reply should be a number in µM, with the unit left off.

Reported apparent KD of MS2 coat protein for UUUAAUUUUUUUUUUUUACAAGCUUUUUGCUCGUCUUAUACAUGAGGAUCACCCAUGUGGGUAGAGAGUAAAUUAUC [JMF 59] (puzzle: Sensor v3, turn-off variant 2) was 0.0167

Reported apparent KD of MS2 coat protein for CGUGACUCAGGAUAUCUAUUAUAUCACAUGAGGAUCACCCAUGUCCAGCGAAAGCUGGAGGGAGAAGGGAGUCACG [Fiskers Ex 5 - 44] (puzzle: Exclusion 5) was 0.0523

Reported apparent KD of MS2 coat protein for AUGAGACAUGAGGAUCACCCAUGUGAGGAUAUGUAUGGAUGUUGGAAAGAAUGAGAGAACAGAAGGCACGUAGA [JR_Exclu1_Sub063] (puzzle: Exclusion 1) was 0.0931

Reported apparent KD of MS2 coat protein for ACAAAGGGAGUCAGGAUAUCGGACGUAAGUCAAGACGAGAAGGGACAUGAGGAUCACCCAUGUCAGCGGUGAAA [Exclusion 4 S1] (puzzle: Brourd's mod of Exclusion 4) was 0.0425

Reported apparent KD of MS2 coat protein for AAGAAUUUAUAGGAUAUCGAAAGUAUAAUUUAACGAGAAGGAUGAACAUGAGGAUCACCCAUGUGGUAUCAUGG [JL-ex6-3.09] (puzzle: Exclusion 6) was 0.145

###

- Test system: MS2 coat protein
- experimental_protocol: apparent KD of MS2 coat protein; designed switch direction (-1 OFF switch, 1 ON switch): -1; higher = weaker reporter binding
- reported_conditions: Eterna round: R95; input ligand: microRNA oligo, concentration not stated
assay_readout: apparent KD of MS2 coat protein (µM)
The reply should be a number in µM, with the unit left off.

// below: answered sequences
UUUUUCGGACAAGCUACGUACAUGAGGAUCACCCAUGUCGGUAGAUUUGAGUAGGUUUGGAUGGAAGCUCGUCUUAU [JR_SV3TOV1_Sub084] (puzzle: Sensor v3, turn-off variant 1)
0.0535
CUGGUCCGAGGAUAUAUUAAGUGAUACAUGAGGAUCACCCAUGUUAUUUGAUGGAUAUUAAUAGAAGGCGGACUAG [Mat - Exclusion 5 - JL mod - D75] (puzzle: Exclusion 5)
0.0188
ACCGGUGUUGCGGAUAAGCUUUUCUGCUCGUUUUAUCGCACAUGAGGAUCACCCAUGUCAUCCGUCAGCAUGCAAAC [Usveen] (puzzle: Sensor v3, turn-off variant 2)
0.0388
GGUGGACAUGAGGAUCACCCAUGUGAGGAUAUCGGCUGGUGCGUGGUGGCUGGCAUCUCGAGAAGGCACAUAGU [Exclusion 1 V67] (puzzle: Exclusion 1)
0.0705
CAGACACAUGAGGAUCACCCAUGUGAGGAUAUGCGUACGUUGUCCGUAGGCGACGUGCGCAGAAGGCGCAUUGG [JL-ex1-3.12 Eli mod] (puzzle: Exclusion 1)
0.0903
AGAAAUGCCCAUGGCCGCAAGCUUCUUGCUUGUCUUACCACAUGAGGAUCACCCAUGUGACAUGGGCUCCUUAUAAU [Xeceenqu] (puzzle: Sensor v3, turn-off variant 2)
0.00959
GUAGAGUCAGGAUAUACGAGAUCGAAAGAUCGGCGAUCCAUACAUGAGGAUCACCCAUGUAGAAGGGACUCUAC [ChP 11-04-2015 #5] (puzzle: Exclusion 2)
0.0142
AGUUGUUGUUUCCGUUCUUACAUGAGGAUCACCCAUGUUUCUUGUCGUGCUCGCGUUGCUCGUCAGACUACCUGUUG [salish99_TOv1_r3_064] (puzzle: Sensor v3, turn-off variant 1)
0.106

Reported apparent KD of MS2 coat protein for GAUUAUGCGAGCUUUAGGGACAUGAGGAUCACCCAUGUUCGUCUUAUUGAUCUAGGUGCACUGACAUACCUAAAUCU [JMF 89] (puzzle: Sensor v3, turn-off variant 1) was 0.0379

Reported apparent KD of MS2 coat protein for CAGUACUGCAGGCUUAGGGACAUGAGGAUCACCCAUGUUCGUCUUAUUGAUCUAGGUACGCUGACGUACCUAGAUCU [JL-sv1-2.15 Brourd mod] (puzzle: Sensor v3, turn-off variant 1) was 0.019

###

- Test system: K4 kissing-loop RNA reporter;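 further: bound reporter read as fluorescence of individual clusters on recovered sequencing chips by microscopy, with normalized cluster intensities fitted with a binding model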
- experimental_protocol: apparent KD of K4 kissing-loop reporter; higher = weaker reporter binding
- reported_conditions: Eterna round: R107; input ligand: FMN 200 uM
assay_readout: apparent KD of K4 kissing-loop reporter

// below: answered sequences
AUAGAGAAGUGGCACCCUCACUAAAACAGUCGAGGACCGGUACGGCCGCCACUCGCGCGCUUUAGUGAUGUUAAAGAUGUGAAAA
223 nM
UGUAUGUGAUUUGAUACCAGACCAGCUGGAGGAAUCUGAGUGAUGUUCAGGUAGGUUUGGGUCCCUUGGCAGCAAAUCGCAUACU [KL-SSTheoB17]
251 nM
GGGAAGUACGGAGGAUAUGCACUGAGGAGGAGAAUAUAGUGAUGUUAUAUAAGAGGAAGGAGAAGAGUAGAAGGCCGUGGAAAGG [SSFMNB.C]
175 nM
GGUGCUGUCUGUGCCGCCCUCCUCGUUCCUCGAGGACCGGUACGGCCGCCACUCGAGUGAUGUUUGGGUAGCGAUCCCUGCUAGC [Bdazzled - #16 Exc. Tryptophan A]
792 nM
CGUACGGUUUCUUUCUUUCCGUACGCGUGCCGAGGACCGGUACGGCCGCCACUCGCUACAGCCUAGUGAUGUUAGGCAAUUCUUU
107 nM

Here is another sequence to look at.
Reported apparent KD of K4 kissing-loop reporter for UGAUACCAGACGGCCGCCACUCCUGCAAGUCAAAGACUUGCUAAGGAAAUCGUCCAGUGAUGUUGGAGGACCGGGUCUGGUAUCU [TrypBX 17 #SwitchBubble #Palindromic #StaticStem] was 931 nM

###

- Tested on: MS2 coat protein
- experimental_protocol: apparent KD of MS2 coat protein; designed switch direction (-1 OFF switch, 1 ON switch): -1; higher = weaker reporter binding
- reported_conditions: input ligand: none
apparent KD of MS2 coat protein vs 40 nM: at or above is MET, below is NOT MET.

AAAAUACAUGAGGAUCACCCAUGUGAGGAUAUGAGAGUCAACUCGAGAGAGUUGAUUCUCAGAAGGCACAUAAA [JR_Ex1_Sub066] (Eterna round: R97, puzzle: Exclusion 1)
MET
GAGUUACAUGAGGAUCACCCAUGUGAGGAUAUGAGUCAGUCACGGUGACGUGGCUGACUCAGAAGGCACAAAGG [Mat - Exclusion 1 - JL Mod - D37] (Eterna round: R97, puzzle: Exclusion 1)
MET
GUGAGCAGACGGAGAUCCAACAUGAGGAUCACCCAUGUCUCACAAGCUUUUUGCUCGUCUUAUCCUCCUCUGUUCAC [Elimod 22 - Jieux - Sensor, turn-off variant 1] (Eterna round: R97, puzzle: Sensor, turn-off variant 1)
NOT MET

--- query ---
Req: Entry UUUUGGCAUGUAGGAUAUGGGUCCGAUUAGGAUUUAGAAGGACAUGAGGAUCACCCAUGUGCCCUUACUUGGUCUUUUUUUUUU [EXclNG1-LROPPY18] (Eterna round: R96, puzzle: Exclusion NG 1) : is its apparent KD of MS2 coat protein no less than 40 nM?
Resp: MET
